Sourced from PubChem BioAssay

Assay: growth effects on S. cerevisiae YJM789 – YJM789 clinical isolate, OD600, 24 h, basal, primary screen (AID 1089);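 further: growth of clinical yeast isolate S. cerevisiae YJM 789 seeded 1000 cells per well; test concentration not given here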
Details: higher = more signal, called active from +8 up or from −8 down
endpoint: z-score
// response body must contain only the number

// returns reported z-score for input [N-]=[N+]=Nc1ccccc1C[C@]1(C(=O)O)COC(c2ccc(OCCCO)cc2)=N1
-0.458

// returns reported z-score for input [N-]=[N+]=Nc1ccccc1C[C@@]1(C(=O)N2CCOCC2)N=C(c2ccc(OCCCO)cc2)O[C@@H]1c1ccccc1
-1.41

// returns reported z-score for input COCCOC(=O)N1C(=O)[C@@]2(c3ccccc31)[C@H](C(=O)NC[C@H](O)c1ccccc1)[C@H]1C(=O)O[C@H](c3ccccc3)[C@H](c3ccccc3)N1[C@@H]2c1ccc(O)cc1
0.787

// returns reported z-score for input CCOC(=O)C[C@H]1[C@H](OC(=O)Cc2ccc3c(c2)OCO3)[C@@H](NC(=O)C2CCCCC2)c2cc(OCCCO)ccc2N1C(=O)c1ccccc1
0.193

// returns reported z-score for input C=CC[C@@]1(C(=O)NCCCOC)N=C(c2ccc(OCCCO)cc2)O[C@@H]1c1ccccc1
-3.84

// returns reported z-score for input COC(=O)[C@@]1(Cc2ccc(OC)cc2)[C@H]2c3cc(C(=O)N4CCCC4)n(CCc4c[nH]c5ccc(OC)cc45)c3C[C@H]2CN1C(=O)c1ccccc1
0.425

// returns reported z-score for input C=C[C@@H](CO)N(Cc1ccc(OC)cc1)S(=O)(=O)c1ccc(Br)cc1
-3.19

// returns reported z-score for input O=C1[C@H]2C=C(I)[C@H](C[C@@H]2OCCOCCO)[C@@]12CO2
0.0387

----------
Would you mind telling me the reported composite z-score of each entry?
Target: Torsin-1A (Homo sapiens) (UniProt O14656)
Sequence (O14656 whole entry, looked up): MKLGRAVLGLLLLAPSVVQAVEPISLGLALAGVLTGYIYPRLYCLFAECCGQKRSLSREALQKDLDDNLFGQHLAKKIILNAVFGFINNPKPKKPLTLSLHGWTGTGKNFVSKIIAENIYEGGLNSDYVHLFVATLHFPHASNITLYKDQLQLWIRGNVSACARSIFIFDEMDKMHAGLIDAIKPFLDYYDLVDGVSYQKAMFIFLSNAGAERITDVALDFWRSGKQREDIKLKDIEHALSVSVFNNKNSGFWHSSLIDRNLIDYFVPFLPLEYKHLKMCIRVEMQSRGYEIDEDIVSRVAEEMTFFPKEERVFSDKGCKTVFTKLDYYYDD
Assay: TOR1A wild-type binding on microarray – cell lysate, small-molecule microarray, lysate, 635/667 nm, primary screen (AID 1149)
Settings: COS7 hTOR1A-WT lysate, 635 nm fluorescence, higher = more signal

// returns reported composite z-score for input NC(=O)[C@@]1(Cc2ccccc2)COC(c2ccc(OCCCO)cc2)=N1
-0.475

// returns reported composite z-score for input O=C1O[C@@H](c2ccccc2)[C@@H](c2ccccc2)N2[C@@H](c3ccc(O)cc3)[C@]3(C(=O)Nc4ccc(C#CCCO)cc43)[C@@H](C(=O)N3CCN(c4ncccn4)CC3)[C@H]12
0.591

// returns reported composite z-score for input OCCCC1=CC(c2ccc(CN3CCCC3)cc2)N(Cc2cc3c(cc2Br)OCO3)CC1 (configuration not stated)
0.763

// returns reported composite z-score for input Cc1ccc(S[C@]2(C(=O)O)CC(=O)N(C3CCCCC3)[C@@H]2c2ccc(CO)cc2I)cc1
0.222

// returns reported composite z-score for input O=C1OCCC=C[C@H]2OC34C=CCN(Cn5nnc6ccccc65)C(=O)[C@H]3N(CCCO)C(=O)[C@@H]4C12 (some centres not stated)
-0.444

// returns reported composite z-score for input Cc1ccc(C(C)CC(O)C2C=CC3C(=O)N(c4ccccc4)C(=O)C3N2Nc2ccccc2)o1 (configuration not stated)
0.145

// returns reported composite z-score for input Cc1ccc(S[C@]2(C(=O)NC(C)C)CC(=O)N(Cc3cc(C(F)(F)F)cc(C(F)(F)F)c3)[C@@H]2c2ccc(CO)cc2)cc1
-1.86

// returns reported composite z-score for input COc1cc(NN2C(C(O)c3ccc(N(C)C)cc3)C=CC3C(=O)N(c4ccccc4)C(=O)C32)cc(OC)c1OC (configuration not stated)
-0.223

// returns reported composite z-score for input CC(C)[Si]1(C(C)C)OCc2cc(C3CC3)nc(-c3ccc(Oc4ccccc4)cc3)c21
0.726

// returns reported composite z-score for input [N-]=[N+]=NCc1ccccc1C[C@@]1(C(N)=O)N=C(c2ccc(OCCCO)cc2)O[C@@H]1c1ccccc1
0.754

// returns reported composite z-score for input CCCC[C@@H](O)C1=C(COc2ccccc2)C[C@H]2C(=O)N(Cc3ccccc3)C(=O)[C@H]2[C@H]1CO
-0.152

// returns reported composite z-score for input CS(=O)(=O)CCOC(=O)C1=CC(CCCO)=CC(c2ccc(CN3CCCC3)cc2)N(Cc2sc3ccccc3c2Cl)C=C1C(=O)OCCS(C)(=O)=O (configuration not stated)
1.4

// returns reported composite z-score for input C[C@@H]1NC(=O)[C@@H](Cc2ccccc2)NC(=O)[C@@]23C(=O)N[C@@H](Cc4ccccc4)C2[C@H](C)[C@@]2(C)O[C@H]2C3/C=C/C/C=C\CNC1=O (some centres not stated)
0.406

// returns reported composite z-score for input COc1ccccc1CN1C(=O)c2ccccc2[C@](Cc2ccccc2I)(C(=O)O)[C@@H]1c1ccc(CO)cc1
0.399

// returns reported composite z-score for input CC(=O)NCCCC[C@@H]1NC(=O)[C@@H]2C[C@H](C(=O)NCCCCCN)[C@H](c3cccc(OCCO)c3)N2C1=O
0.738

// returns reported composite z-score for input COc1ccc([Si](C)(C)[C@@H]2[C@@H](CCO)O[C@]3(C(=O)N(Cc4cccc(NC(=O)[C@H](C)O)c4)c4ccccc43)[C@H]2C)cc1
0.23

// returns reported composite z-score for input C=CCNC(=O)[C@@H]1[C@H]2C(=O)O[C@H](c3ccccc3)[C@H](c3ccccc3)N2[C@H](c2ccccc2OCCO)[C@@]12C(=O)N(C(=O)OCCOC)c1ccc(C#CC3(O)CCCCCC3)cc12
0.759

// returns reported composite z-score for input CCN(CC)c1ccc(N2CC=CC34O[C@@H]5/C=C\CCCOC(=O)C5[C@H]3C(=O)N(C(C)CO)[C@@H]4C2=O)cc1 (some centres not stated)
-0.428

// returns reported composite z-score for input CC(C)N1CC=CC23O[C@@H]4C=CCCOC(=O)C4[C@H]2C(=O)N(CCCO)[C@@H]3C1=O (some centres not stated)
-1.02

// returns reported composite z-score for input COc1ccc([Si](C)(C)[C@@H]2[C@@H](CC(=O)N(CCO)Cc3ccccc3)O[C@]3(C(=O)N(Cc4cccc(N5CCCCC5=O)c4)c4ccccc43)[C@H]2C)cc1
0.961

// returns reported composite z-score for input CCCN1C(=O)[C@]2(Cc3ccccc31)N=C(c1ccc(OCCCO)cc1)O[C@@H]2c1ccccc1
0.738

// returns reported composite z-score for input CCCCCCCCCC(O)C1C=CC2C(=O)N(c3ccccc3)C(=O)C2N1Nc1cc(OC)c(OC)c(OC)c1 (configuration not stated)
-1.45

// returns reported composite z-score for input CCOC(=O)C[C@H]1[C@H](OC(=O)Cc2ccc3c(c2)OCO3)[C@@H](NC(=O)c2ccc3ccccc3n2)c2cc(OCCCO)ccc2N1C(=O)c1ccc2ccccc2n1
0.451

// returns reported composite z-score for input COCCOC(=O)N1C(=O)[C@@]2(c3cc(C#CC4(O)CCCCCC4)ccc31)[C@H](C(=O)Nc1nc3ccccc3s1)[C@H]1C(=O)O[C@H](c3ccccc3)[C@H](c3ccccc3)N1[C@@H]2c1ccc(O)cc1
0.878

// returns reported composite z-score for input COCCOC(=O)N1C(=O)[C@@]2(c3cc(C#CCCO)ccc31)[C@H](C(=O)Nc1nc3ccccc3s1)[C@H]1C(=O)O[C@H](c3ccccc3)[C@H](c3ccccc3)N1[C@@H]2c1ccc(O)cc1
0.772

// returns reported composite z-score for input COCCOC(=O)N1C(=O)[C@@]2(c3ccccc31)[C@H](c1ccc(O)cc1)N1[C@H](c3ccccc3)[C@H](c3ccccc3)OC(=O)[C@H]1[C@@H]2C(=O)N1CCN(c2ncccn2)CC1
0.432

// returns reported composite z-score for input [N-]=[N+]=Nc1ccccc1C[C@@]1(C(=O)NCCN2CCOCC2)N=C(c2ccc(OCCCO)cc2)O[C@@H]1c1ccccc1N=[N+]=[N-]
0.801

----------
Test: budding yeast growth changes without added modifier – OD600, strain BY4716, 24 h, basal condition, primary screen (AID 1173)
Details: S. cerevisiae BY4716 growth, OD600, 24 h; higher = more signal, called active from +8 up or from −8 down
endpoint: z-score
// response body must contain only the number

// returns reported z-score for input CC(C)c1ccc(NN2C(C(O)c3ccc(C#N)cc3)C=CC3C(=O)N(c4ccccc4)C(=O)C32)cc1 (centres undefined)
-1.67

// returns reported z-score for input C=CCNC(=O)[C@H]1[C@@H]2C(=O)O[C@@H](c3ccccc3)[C@@H](c3ccccc3)N2[C@@H](c2ccccc2OCCO)[C@]12C(=O)N(C(=O)OCCOC)c1ccc(C#CC3(O)CCCCCC3)cc12
-0.0911

// returns reported z-score for input COc1cc(NN2C(C(O)c3cc(OC)c(OC)c(OC)c3)C=CC3C(=O)N(C)C(=O)C32)cc(OC)c1OC (centres undefined)
0.712

// returns reported z-score for input COc1cc2c(cc1O)C=[N+](Cc1sc3ccccc3c1Cl)CC2
-1.04
